src = patent US20150080295A1

- experimental_target: human glucagon receptor (human, UniProt P47871 26-477)
- assay_text: cell-based or functional assay
Square brackets hold non-standard residues; d marks the D form. Ends that are not written are not given here. Aib = CC(C)(N)C(=O)O
Documented GLUR EC50 (nM), cAMP formation in HEK293 cells expressing human Glucagon-R across a set of binders
Value expressed in nM; do not type the unit.

# binder, experimental_value
measured = [
    ("H-HSQGTFTSDYSKYLDSKAAHDFVQWLLRA-NH2 [L006-0172]", 0.37),
    ("H[Aib]QGTFTSDYSKYLDSKAAHDFVEWLLRA-NH2 [ZP2867]", 0.06),
]

Data request: I would be grateful if you could share the reported GLUR EC50 (nM), cAMP formation in HEK293 cells expressing human Glucagon-R for H-HSQGTFTSDYSKYLDSKAAHDFVEWLLRA-NH2 [ZP2669] .
Data returned: 0.05
